# Study System: NRAS G12D C118S (Homo sapiens (Human), UniProt P01111, C118S/G12D)
# Sequence (P01111 whole entry G12D/C118S): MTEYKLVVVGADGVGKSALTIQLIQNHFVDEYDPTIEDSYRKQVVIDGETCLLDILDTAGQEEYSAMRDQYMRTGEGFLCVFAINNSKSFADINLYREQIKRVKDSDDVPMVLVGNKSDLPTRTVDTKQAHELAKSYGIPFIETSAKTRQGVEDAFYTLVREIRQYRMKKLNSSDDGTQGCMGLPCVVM
# Measurement Notes: NRas G12D Surface Plasmon Resonance (SPR) binding assay
# Measurement Conditions: Avi-tagged biotinylated NRAS G12D C118S on streptavidin chip, 25° C., 1:1 kinetic or steady-state fit
pKd: −log10 of the molar value.
Would you mind labelling by pKd? At or over 6 is YES, under is NO.

Use these answered entries as a reference point.
- Molecule: "C#Cc1c(F)ccc2cc(O)cc(-c3ncc4c(N5CC6CCC(C5)N6)nn(CC5CCOC5)c4c3F)c12 (stereo not drawn)"
  Assigned Label: "NO"
- Molecule: "C#Cc1c(F)ccc2cc(O)cc(-c3ncc4c([C@H]5[C@@H]6CNC[C@@H]65)cn(C)c4c3F)c12"
  Assigned Label: "YES"
- Molecule: "C#Cc1c(F)ccc2cc(O)cc(-c3nc(OC4CC4)c4c([C@H]5[C@@H]6CNC[C@@H]65)nn(C5CC5)c4c3F)c12"
  Assigned Label: "YES"

Query :: In plain terms: is recorded pKd at least 6 for "C#Cc1c(F)ccc2cc(O)cc(-c3ncc4c(N5C[C@@H]6CC[C@H]5CN6)nn(C5CC5)c4c3F)c12" ?
Result :: YES

* * *

Listed here: items and their measured IC50.
# Test system: THP-1 cells expressing G12D (NRAS G12D)
# Measurement Notes: Inhibition of NRAS G12D-mediated phosphorylation of ERK (AlphaLISA p-ERK1/2) in THP-1 cells
# Assay type: cell-based
# Measurement Conditions: 2 hours incubation, HBSS with 0% or 10% FBS, p-ERK1/2 (Thr202/Tyr204) AlphaLISA, read-out: pERK THP-1 IC50
# Method: Inhibition of NRAS G12D-Mediated Phosphorylation of ERK by Exemplary Compounds of Formulas I, II, and III. This Example illustrates that exemplary compounds and salts thereof described herein inhibit the phosphorylation of ERK downstream of NRAS G12D. THP-1 cells (ATCC TIB-202) expressing G12D were maintained in RPMI-1640 medium supplemented with 10% fetal bovine serum (FBS), 0.05 mM 2-mercaptoethanol, and penicillin/streptomycin. […] Plates were read on a PerkinElmer® Envision Multimode plate reader. […]

- Molecule: "C#Cc1c(F)ccc2cc(O)cc(-c3ncc4c([C@H]5[C@@H]6CN[C@@H](C(=O)OC)[C@@H]65)nn(C)c4c3F)c12 (racemic) [Example 47]"
  IC50: "0.116 µM"
- Molecule: "C#Cc1c(F)ccc2cc(O)cc(-c3ncc4c(C5CC6CCC5CN6)nn(C)c4c3F)c12 (stereo not drawn)"
  IC50: "6.74 µM"

# context switch: different molecule, same IC50
Query :: Field request: IC50 | item: C#Cc1c(F)ccc2cc(O)cc(-c3ncc4c([C@H]5[C@@H]6CN[C@@H](C(=O)OC)[C@@H]65)nn(C)c4c3F)c12 (racemic) [Example 48]
Result :: 6.47 µM

* * *

Listed here: items and their measured pKd.
# Study System: NRAS G12D C118S (Homo sapiens (Human), UniProt P01111, C118S/G12D)
# Measurement Notes: NRas G12D Surface Plasmon Resonance (SPR) binding assay
# Measurement Conditions: Avi-tagged biotinylated NRAS G12D C118S on streptavidin chip, 25° C., 1:1 kinetic or steady-state fit
# pKd: negative log10 of molar concentration; output just the value

- Molecule: "C#Cc1c(F)ccc2cc(O)cc(-c3nc(OC(C)C)c4c([C@H]5[C@@H]6CNC[C@@H]65)nn(C5CC5)c4c3F)c12"
  Numeric Readout: 7.73

Query :: Field request: pKd | item: "C#Cc1c(F)ccc2cc(O)cc(-c3ncc4c([C@H]5[C@@H]6CNC[C@@H]65)nn(CCCN(C)C)c4c3F)c12"
Result :: 5.12

Query :: Please do the same for "C#Cc1c(F)ccc2cc(O)cc(-c3ncc4c(N5C[C@H]6CC[C@@H]5CN6)nn(C)c4c3F)c12" as well.
Result :: 5.59

Query :: Please do the same for "C#Cc1c(F)ccc2cc(O)cc(-c3c(F)cc4c([C@H]5[C@@H]6CNC[C@@H]65)cn(C)c4c3F)c12" as well.
Result :: 6.02

Query :: Please do the same for "C#Cc1c(F)ccc2cc(O)cc(-c3ncc4c(N5CC6CCC(C5)N6)nn(C)c4c3F)c12" as well.
Result :: 6.05

Query :: Please do the same for C#Cc1c(F)ccc2cc(O)cc(-c3ncc4c(c(C)cn4C4=CC5CCC4CN5)c3F)c12 (stereo not shown) as well.
Result :: 5.40

Query :: Please do the same for C#Cc1c(F)ccc2cc(O)cc(-c3ncc4c(N5CC6CC5CN6)nn(C)c4c3F)c12 (stereo not shown) as well.
Result :: 5.96

* * *

# Study System: NRAS G12D C118S (Homo sapiens (Human), UniProt P01111, C118S/G12D)
# Measurement Notes: NRas G12D Surface Plasmon Resonance (SPR) binding assay
# Measurement Conditions: Avi-tagged biotinylated NRAS G12D C118S on streptavidin chip, 25° C., 1:1 kinetic or steady-state fit
Listed here: items and their measured pKd.
# pKd: negative log10 of molar concentration; output just the value

Example entries and their recorded answers appear below.
- Molecule: "C#Cc1c(F)ccc2cc(O)cc(-c3ncc4c([C@H]5[C@@H]6CNC[C@@H]65)c(C)n(C)c4c3F)c12"
  pKd: 5.74
- Molecule: "C#Cc1c(F)ccc2cc(O)cc(-c3ncc4c(N5CC6CCCC(C5)N6)nn(C)c4c3F)c12"
  pKd: 5.46
- Molecule: "C#Cc1c(F)ccc2cc(O)cc(-c3cc4c(cn3)c([C@H]3[C@@H]5CNC[C@@H]53)cn4C)c12"
  pKd: 5.79

# context switch: different molecule, same pKd
Query :: Field request: pKd | item: C#Cc1c(F)ccc2cc(O)cc(-c3ncc4c(c3F)n(C)c(=O)n4C3[C@H]4CNC[C@@H]34)c12 (stereo partly shown)
Result :: 5.00

* * *

# Study System: NRAS G12D C118S (Homo sapiens (Human), UniProt P01111, C118S/G12D)
# Measurement Notes: NRas G12D Surface Plasmon Resonance (SPR) binding assay
# Measurement Conditions: Avi-tagged biotinylated NRAS G12D C118S on streptavidin chip, 25° C., 1:1 kinetic or steady-state fit
Attribute Measured: Kd (nM)
The answer is to be given in nM; state only the numeric part.

Example entries and their recorded answers appear below.
- Molecule: "C#Cc1c(F)ccc2cc(O)cc(-c3ncc4c([C@H]5[C@@H]6CNC[C@@H]65)nn(CC)c4c3F)c12"
  Study System: "NRAS G12D C118S (Homo sapiens (Human), UniProt P01111, C118S/G12D)"
  Unit Annotation: "nM"
  Numeric Readout: 159
- Molecule: "C#Cc1c(F)ccc2cc(O)cc(-c3nc(NC)c4c([C@H]5[C@@H]6CNC[C@@H]65)nn(C5CC5)c4c3F)c12"
  Study System: "NRAS G12D C118S (Homo sapiens (Human), UniProt P01111, C118S/G12D)"
  Unit Annotation: "nM"
  Numeric Readout: 28.3
- Molecule: "C#Cc1c(F)ccc2cc(O)cc(-c3ncc4c(N5CC(N(C)C)C5)nn(C)c4c3F)c12"
  Study System: "NRAS G12D C118S (Homo sapiens (Human), UniProt P01111, C118S/G12D)"
  Unit Annotation: "nM"
  Numeric Readout: 8750
- Molecule: "C#Cc1c(F)ccc2cc(O)cc(-c3ncc4c(C5=CC6CCC(C5)N6)nn(CC)c4c3F)c12 (stereo not shown)"
  Study System: "NRAS G12D C118S (Homo sapiens (Human), UniProt P01111, C118S/G12D)"
  Unit Annotation: "nM"
  Numeric Readout: 16200
- Molecule: "C#Cc1c(F)ccc2cc(O)cc(-c3nc(CC)c4c(N5C[C@@H]6CC[C@H]5CN6)nn(C5CC5)c4c3F)c12"
  Study System: "NRAS G12D C118S (Homo sapiens (Human), UniProt P01111, C118S/G12D)"
  Unit Annotation: "nM"
  Numeric Readout: 107

Query :: Field request: Kd | item: "C#Cc1c(F)ccc2cc(O)cc(-c3cc4c(cn3)c(N3C5CCC3CNC5)nn4C)c12"
Result :: 6100

Query :: Please do the same for "C#Cc1c(F)ccc2cc(O)cc(-c3ncc4c(N5CC6CCC(C5)N6)cn(C5CC5)c4c3F)c12" as well.
Result :: 336

* * *

# Study System: NRAS G12D C118S (Homo sapiens (Human), UniProt P01111, C118S/G12D)
# Measurement Notes: NRas G12D Surface Plasmon Resonance (SPR) binding assay
# Measurement Conditions: Avi-tagged biotinylated NRAS G12D C118S on streptavidin chip, 25° C., 1:1 kinetic or steady-state fit
Attribute Measured: pKd
# pKd: negative log10 of molar concentration; output just the value

- Molecule: "C#Cc1c(F)ccc2cc(O)cc(-c3ncc4c(N5CC6CCC(C5)N6)nn(CC)c4c3F)c12"
  pKd: 5.72
- Molecule: "C#Cc1c(F)ccc2cc(O)cc(-c3nc(C(C)C)c4c([C@H]5[C@@H]6CNC[C@@H]65)nn(C5CC5)c4c3F)c12"
  pKd: 9.85
- Molecule: "C#Cc1c(F)ccc2cc(O)cc(-c3ncc4c(C5CC6CCC5CN6)nn(C)c4c3F)c12 (stereo not drawn)"
  pKd: 6.70

Query :: Field request: pKd | item: "C#Cc1c(F)ccc2cc(O)cc(-c3ncc4c(N5C[C@@H]6C[C@H](O)[C@H](C5)N6)nn(C)c4c3F)c12"
Result :: 6.13

Query :: Please do the same for C#Cc1c(F)ccc2cc(O)cc(-c3ncc4c(N5CC6CCCC5CN6)nn(C)c4c3F)c12 (stereo not drawn) as well.
Result :: 5.39

Query :: Please do the same for "C#Cc1c(F)ccc2cc(O)cc(-c3ncc4c([C@H]5[C@@H]6CNC[C@@H]65)nn(C)c4c3F)c12" as well.
Result :: 7.07
